This collection of values is drawn from patent US8324245B2.

Each entry below carries its reported IC50.
target: met (HGF receptor) in human gastric cancer cells MKN45 (Homo sapiens); construct: endogenous in cells; experiment: Inhibitory activity against met-autophosphorylation using ELISA method (2), MKN45 cells, HGF-independent
Sequence (P08581 25-1390): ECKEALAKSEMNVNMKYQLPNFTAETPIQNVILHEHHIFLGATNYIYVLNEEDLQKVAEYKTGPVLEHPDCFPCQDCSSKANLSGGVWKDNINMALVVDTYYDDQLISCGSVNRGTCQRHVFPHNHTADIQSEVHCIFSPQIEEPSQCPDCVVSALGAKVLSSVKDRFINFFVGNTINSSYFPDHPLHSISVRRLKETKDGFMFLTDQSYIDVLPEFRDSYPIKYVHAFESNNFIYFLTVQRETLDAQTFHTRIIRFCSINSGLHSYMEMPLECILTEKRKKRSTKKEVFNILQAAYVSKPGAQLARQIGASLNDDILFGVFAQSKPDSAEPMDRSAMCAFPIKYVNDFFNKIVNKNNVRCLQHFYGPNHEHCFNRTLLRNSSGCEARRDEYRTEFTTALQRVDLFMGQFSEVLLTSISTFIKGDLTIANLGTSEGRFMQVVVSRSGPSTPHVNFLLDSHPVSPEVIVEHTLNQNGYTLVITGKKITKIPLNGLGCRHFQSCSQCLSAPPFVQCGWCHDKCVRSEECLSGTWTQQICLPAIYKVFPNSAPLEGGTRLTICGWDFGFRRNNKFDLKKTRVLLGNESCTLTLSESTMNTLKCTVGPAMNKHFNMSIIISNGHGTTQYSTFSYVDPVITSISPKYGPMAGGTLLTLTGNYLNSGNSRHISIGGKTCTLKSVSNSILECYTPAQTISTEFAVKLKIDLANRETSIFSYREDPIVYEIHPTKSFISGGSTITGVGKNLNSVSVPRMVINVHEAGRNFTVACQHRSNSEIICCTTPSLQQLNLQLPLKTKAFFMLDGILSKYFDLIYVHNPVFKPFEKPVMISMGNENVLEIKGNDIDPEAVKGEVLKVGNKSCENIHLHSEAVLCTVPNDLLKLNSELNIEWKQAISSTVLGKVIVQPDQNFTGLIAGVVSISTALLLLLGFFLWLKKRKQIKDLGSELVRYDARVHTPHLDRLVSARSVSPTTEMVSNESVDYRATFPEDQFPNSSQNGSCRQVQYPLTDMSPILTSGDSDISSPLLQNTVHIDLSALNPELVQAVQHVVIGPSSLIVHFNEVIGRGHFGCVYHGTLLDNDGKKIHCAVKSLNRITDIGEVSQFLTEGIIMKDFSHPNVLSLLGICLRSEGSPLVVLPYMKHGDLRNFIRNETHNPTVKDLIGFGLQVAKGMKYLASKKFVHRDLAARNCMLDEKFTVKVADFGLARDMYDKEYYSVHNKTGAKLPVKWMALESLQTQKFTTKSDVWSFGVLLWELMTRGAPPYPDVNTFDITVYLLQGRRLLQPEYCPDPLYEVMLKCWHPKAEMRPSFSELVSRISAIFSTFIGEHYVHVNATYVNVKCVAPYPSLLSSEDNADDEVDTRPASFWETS
# value in nM; strip the unit string

Use the examples below as a reference point.
COc1cc2nccc(Oc3ccc(NC(=O)NC(=O)CSC4CCCCC4)cc3F)c2cc1OC
359
COc1cc2nccc(Oc3ccc(NC(=O)CC(=O)Nc4ccc(Cl)cc4)cc3)c2cc1OC
736
COc1cc2nccc(Oc3ccc(NC(=S)NC(=O)Cc4ccsc4)cc3F)c2cc1OC
48.8

Task: Annotate the compound COc1cc2c(Oc3ccc(NC(=O)NC(=O)Cc4ccc(F)cc4)cc3F)ccnc2cc1OCC(O)CN1CCOCC1 (stereo not shown) with its measured IC50.
Output: 32.8

Task: Annotate the compound COc1cc2nccc(Oc3ccc(NC(=O)NC(=O)Nc4ccc(CC#N)cc4)cc3)c2cc1OC with its measured IC50.
Output: 3320

Task: Annotate the compound COc1cc2nccc(Oc3ccc(NC(=O)NC(=O)CN4CCSCC4)cc3Cl)c2cc1OC with its measured IC50.
Output: 2370

Task: Annotate the compound COc1cc2c(Oc3ccc(NC(=S)NC(=O)Cc4cccc(F)c4)cc3F)ccnc2cc1OCCN1CCOCC1 with its measured IC50.
Output: 20.4
